inhibition: recorded values
- TARGET ENTITY: Rhodopsin kinase GRK7 (Homo sapiens);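 further: mean percent inhibition of GRK7, profiled as part of the GSK PKIS screen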
- CONDITION: at 1 µM
Kindly write the number and append the unit.

>  <SMILES NOTATION>
NC(=O)c1sc(-n2cnc3cc(C(F)(F)F)ccc32)cc1OCc1ccccc1Br

>  <inhibition>
5.78%

$$$$
>  <SMILES NOTATION>
Nc1nonc1-c1nc2cnccc2n1C1CCCCC1

>  <inhibition>
2.63%

$$$$
>  <SMILES NOTATION>
COc1cc2c(cc1Nc1nc(Nc3ccsc3C(N)=O)c3cc[nH]c3n1)N(C(=O)CN(C)C)CCC2

>  <inhibition>
60.3%

$$$$
>  <SMILES NOTATION>
COc1cccc(-n2ncc3c(N/N=C/c4ccncc4)ncnc32)c1

>  <inhibition>
5.17%

$$$$
>  <SMILES NOTATION>
CCn1c(-c2nonc2N)nc2c(C#CC(C)(C)O)ncc(OCC3CCNCC3)c21

>  <inhibition>
23.3%

$$$$

Which inhibition reading was recorded for the compound "Fc1ccc(-c2ncn(C3CCNCC3)c2-c2ccnc(Oc3ccccc3)n2)cc1" ?
-1.71%

Which inhibition reading was recorded for the compound "Cc1cc(-c2ccco2)cc(C)c1/C=C/c1cncc(-c2nn[nH]n2)c1" ?
49.9%

Which inhibition reading was recorded for the compound "CCn1c(-c2nonc2N)nc2c(C#CCN)ncc(OCCCN)c21" ?
7.43%

Which inhibition reading was recorded for the compound "NS(=O)(=O)c1ccc(N/C=C2\C(=O)Nc3ccc4ncsc4c32)cc1" ?
6.58%

Which inhibition reading was recorded for the compound "CCn1c(-c2nonc2N)nc2c(C#CC(C)(C)O)nc(O[C@@H](CN)c3ccccc3)cc21" ?
114%
